# targetDesc: mu opioid receptor peptide Mu OPR 111–122 (Homo sapiens, UniProt P35372)
# Construct: Mu OPR 111–122; purchased RS Synthesis (Louisville, KY, USA); host or cells: chemical synthesis
# assaySummary: biochemical
# Assay type: binding
# statedConditions: UV spectrophotometry; single value, or first (higher-affinity) value of a cell a/b
readout: Kd (µM)

* N[C@@H](Cc1ccc(O)cc1)C(=O)O | 700

* * *

# targetDesc: histamine 1 receptor peptide HIHR 177–183 RDKCETD (Homo sapiens, UniProt P35367, E177R)
# Construct: HIHR 177–183 RDKCETD; purchased RS Synthesis (Louisville, KY, USA); host or cells: chemical synthesis
# assaySummary: biochemical
# Format: binding
# statedConditions: UV spectrophotometry; read-out: Kd (µM) HIHR 177–183 RDKCETD
readout: Kd

* OC[C@H]1OC(O)[C@H](O)[C@@H](O)[C@@H]1O (stereo partly shown) | > 1000 µM
* CC(=O)OCC[N+](C)(C)C | > 1000 µM
* NCCc1c[nH]c2ccc(O)cc12 | 60 µM
* N[C@@H](Cc1ccc(O)cc1)C(=O)O | 50 µM
* N[C@@H](CCC(=O)O)C(=O)O [Glutamate, glutamate] | > 1000 µM
* CNC[C@H](O)c1cccc(O)c1 | 50 µM
* N[C@@H](Cc1ccccc1)C(=O)O | 50 µM

* * *

# targetDesc: histamine 1 receptor peptide HIHR 177–183 RDKCETD (Homo sapiens, UniProt P35367, E177R)
# Construct: HIHR 177–183 RDKCETD; purchased RS Synthesis (Louisville, KY, USA); host or cells: chemical synthesis
# assaySummary: biochemical
# Format: binding
readout: Kd (µM)

* CCC(=O)C(CC(C)N(C)C)(c1ccccc1)c1ccccc1 (centres unmarked) | 150

* * *

# targetDesc: insulin receptor peptide INSR 157–166 (Homo sapiens, UniProt P06213)
# Construct: INSR 157–166; purchased RS Synthesis (Louisville, KY, USA); host or cells: chemical synthesis
# assaySummary: biochemical
# Type: binding
readout: Kd (µM)

• CCC(=O)C(CC(C)N(C)C)(c1ccccc1)c1ccccc1 (stereo not shown) [Methadone, methadone] = 80

* * *

# targetDesc: histamine 1 receptor peptide H1HR 77–87 GAVVMPMNILYL (Homo sapiens, UniProt P35367)
# Construct: H1HR 77–87 GAVVMPMNILYL; purchased RS Synthesis (Louisville, KY, USA); host or cells: chemical synthesis
# assaySummary: biochemical
# Format: binding
# statedConditions: read-out: Kd (µM) H1HR 77–87 GAVVMPMNILYL; UV spectrophotometry; single value, or first (higher-affinity) value of a cell a/b; read-out: Kd (µM) H1HR 77–87 […]
readout: Kd

• N[C@@H](CCC(=O)O)C(=O)O [Glutamate, glutamate] = > 1000 µM

* * *

# targetDesc: beta 2 adrenergic receptor peptide B2AR 183–185 NCY (Homo sapiens)
# Construct: B2AR 183–185 NCY; purchased RS Synthesis (Louisville, KY, USA); host or cells: chemical synthesis
# assaySummary: biochemical
# Assay type: binding
# statedConditions: Figure 4
readout: binding to adrenergic receptor peptide 183–185 (NCY), in words

• N[C@@H](CCC(=O)O)C(=O)O [Glutamate, glutamate] = No binding was observed
• N[C@@H](Cc1ccc(O)cc1)C(=O)O = Significant binding
• N[C@@H](Cc1ccccc1)C(=O)O = Significant binding
• OC[C@H]1OC(O)[C@H](O)[C@@H](O)[C@@H]1O (stereo partly shown) = No binding was observed
• NCC(=O)O = No binding was observed
• CC(=O)OCC[N+](C)(C)C = No binding was observed

* * *

Reported Kd by item:
# targetDesc: beta 2 adrenergic receptor peptide B2AR 183–185 NCY (Homo sapiens)
# Construct: B2AR 183–185 NCY; purchased RS Synthesis (Louisville, KY, USA); host or cells: chemical synthesis
# assaySummary: biochemical
# Type: binding
readout: Kd

• CCC(=O)C(CC(C)N(C)C)(c1ccccc1)c1ccccc1 (stereo not drawn) = > 1000 µM
• CSCC[C@H](NC(=O)[C@H](Cc1ccccc1)NC(=O)CNC(=O)CNC(=O)[C@@H](N)Cc1ccc(O)cc1)C(=O)O = > 1000 µM
• C=CCN1CC[C@]23c4c5ccc(O)c4O[C@H]2C(=O)CC[C@@]3(O)[C@H]1C5 = > 1000 µM

* * *

# targetDesc: oxidized glutathione (Glut OX, ECG-ECG)
# assaySummary: UV spectrophotometry binding to oxidized glutathione
# statedConditions: second value of a cell a/b; read-out: Kd (µM) Glut OX ECG-ECG, lower-affinity binding
readout: Kd (µM)

- O=C1O[C@H]([C@@H](O)CO)C(O)=C1O: 310

* * *

# targetDesc: beta 2 adrenergic receptor peptide B2AR 97–103 KMWTFGN (Homo sapiens, UniProt P07550)
# Construct: B2AR 97–103 KMWTFGN; purchased RS Synthesis (Louisville, KY, USA); host or cells: chemical synthesis
# assaySummary: biochemical
# Format: binding
Reported Kd by item:
readout: Kd (µM)

* CCC(=O)C(CC(C)N(C)C)(c1ccccc1)c1ccccc1 (centres unmarked) | 300
* NCCc1c[nH]c2ccc(O)cc12 | 430

* * *

# targetDesc: histamine 1 receptor peptide H1HR 105–108 SMDY (Homo sapiens, UniProt P35367)
# Construct: H1HR 105–108 SMDY; purchased RS Synthesis (Louisville, KY, USA); host or cells: chemical synthesis
# assaySummary: biochemical
# Type: binding
# statedConditions: UV spectrophotometry; single value, or first (higher-affinity) value of a cell a/b; read-out: Kd (µM) H1HR 105–108 SMDY
readout: Kd (µM)

- N[C@@H](Cc1ccc(O)cc1)C(=O)O: 50
- N[C@@H](Cc1ccccc1)C(=O)O: 60
- NCCc1c[nH]c2ccc(O)cc12: 120

* * *

# targetDesc: beta 2 adrenergic receptor peptide B2AR 105–108 WCEF (Homo sapiens, UniProt P07550)
# Construct: B2AR 105–108 WCEF; purchased RS Synthesis (Louisville, KY, USA); host or cells: chemical synthesis
# assaySummary: biochemical
# Assay type: binding
# statedConditions: UV spectrophotometry; read-out: Kd (µM) B2AR 105–108 WCEF
readout: Kd

* N[C@@H](Cc1ccccc1)C(=O)O | 55 µM
* NCCc1c[nH]cn1 | 50 µM
* N[C@@H](Cc1ccc(O)cc1)C(=O)O | 50 µM
* N[C@@H](CCC(=O)O)C(=O)O [Glutamate, glutamate] | > 1000 µM
* NCC(=O)O | > 1000 µM
* O=C1OC(C(O)CO)C(=O)C1=O (stereo not drawn) [Dehydro Asc, dehydroascorbic acid] | 20 µM

* * *

# targetDesc: histamine 1 receptor peptide H1HR 77–87 GAVVMPMNILYL (Homo sapiens, UniProt P35367)
# Construct: H1HR 77–87 GAVVMPMNILYL; purchased RS Synthesis (Louisville, KY, USA); host or cells: chemical synthesis
# assaySummary: biochemical
# Format: binding
# statedConditions: UV spectrophotometry; single value, or first (higher-affinity) value of a cell a/b; read-out: Kd (µM) H1HR 77–87 […]
Reported Kd by item:
readout: Kd

* CC(=O)OCC[N+](C)(C)C [Acetylcholine, acetylcholine] | > 1000 µM
* NCCc1c[nH]c2ccc(O)cc12 [Serotonin, serotonin] | 50 µM
* N[C@@H](Cc1ccccc1)C(=O)O [Phenylalanine, phenylalanine] | > 1000 µM
* N[C@@H](Cc1ccc(O)cc1)C(=O)O [Tyrosine, tyrosine] | > 1000 µM

* * *

# targetDesc: mu opioid receptor peptide Mu OPR 132–143 (Homo sapiens)
# Construct: Mu OPR 132–143; purchased RS Synthesis (Louisville, KY, USA); host or cells: chemical synthesis
# assaySummary: biochemical
# Type: binding
# statedConditions: UV spectrophotometry; single value, or first (higher-affinity) value of a cell a/b
readout: Kd

• N[C@@H](Cc1ccc(O)cc1)C(=O)O [Tyrosine, tyrosine] = 60 µM
• N[C@@H](Cc1ccccc1)C(=O)O [Phenylalanine, phenylalanine] = 80 µM

* * *

# targetDesc: Opioid Receptor (mu opioid receptor peptides) (Homo sapiens)
# Sequence (P35372 with tags, fused parts or gaps): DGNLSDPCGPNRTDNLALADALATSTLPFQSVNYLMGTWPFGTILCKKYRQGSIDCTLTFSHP
# assaySummary: Overall pattern of binding: Opioid Receptor peptides
# statedConditions: first symbol of the cell
Reported Kd by item:
readout: Kd

• NCCc1c[nH]c2ccc(O)cc12 = > 60 µM
• CC(=O)OCC[N+](C)(C)C = > 60 µM

* * *

# targetDesc: mu opioid receptor peptide Mu OPR 38–51 (Homo sapiens, UniProt P35372)
# Construct: Mu OPR 38–51; purchased RS Synthesis (Louisville, KY, USA); host or cells: chemical synthesis
# assaySummary: biochemical
# Type: binding
# statedConditions: UV spectrophotometry; single value, or first (higher-affinity) value of a cell a/b; read-out: Kd (µM) Mu OPR 38–51
Reported Kd by item:
readout: Kd

* N[C@@H](Cc1ccccc1)C(=O)O [Phenylalanine, phenylalanine] | 50 µM
* N[C@@H](Cc1ccc(O)cc1)C(=O)O [Tyrosine, tyrosine] | 85 µM
